- assay protocol: Pharmacokinetic study in mice (plasma and brain availability)
- Type: in vivo
- condition description: mouse, 10 mg/kg PO, brain, read-out: E Half-life (converted)
reported endpoint: half-life (h)
Numeric answer only, unit h assumed.

### Prompt Reported half-life, compound COc1ccc2[nH]c(=O)c3c(C)nn(-c4cc(OCC5CCC5)ccc4Cl)c3c2n1 : ____
### Response 2.4

---

Below are IC50 values measured for r-hPDE2A (Homo sapiens (Human)).
Numeric answer only, unit nM assumed.

### Prompt Query the reported IC50 for r-hPDE2A (Homo sapiens (Human)); item: CCCCOc1ccc(Cl)c(-n2nc(C)c3c(=O)[nH]c4ccc(OC)nc4c32)c1 [Example 21]
### Response 9.4

Proceed to the following item.
### Prompt Query the reported IC50 for r-hPDE2A (Homo sapiens (Human)); item: COc1ccc2[nH]c(=O)c3c(C)nn(-c4cc(OCC5CCC5)ccc4Cl)c3c2n1 [Example 22]
### Response 5.9

---

- assay protocol: Pharmacokinetic study in mice (plasma and brain availability)
- Type: in vivo
- condition description: mouse, 10 mg/kg PO, brain
reported endpoint: Tmax (h)
Numeric answer only, unit h assumed.

### Prompt Reported Tmax, molecule COc1ccc2[nH]c(=O)c3c(C)nn(-c4cc(OCC5CCC5)ccc4Cl)c3c2n1 [Example 22] : ____
### Response 2

---

- assay protocol: Pharmacokinetic study in mice (plasma and brain availability)
- Type: in vivo
- condition description: mouse, brain/plasma, po, 10 mg/kg, 10 mg/kg PO, read-out: Blood/plasma Ratio of Cmax (obs)
reported endpoint: blood plasma ratio
When you answer, write just the number.

### Prompt Reported blood plasma ratio, compound COc1ccc2[nH]c(=O)c3c(C)nn(-c4cc(OCC5CCC5)ccc4Cl)c3c2n1 : ____
### Response 1.4

---

- assay protocol: Pharmacokinetic study in mice (plasma and brain availability)
- Type: in vivo
- condition description: mouse, brain/plasma, po, 10 mg/kg, 10 mg/kg PO, read-out: Blood/plasma Ratio of AUC (area)
reported endpoint: blood plasma ratio
When you answer, write just the number.

### Prompt Reported blood plasma ratio, molecule COc1ccc2[nH]c(=O)c3c(C)nn(-c4cc(OCC5CCC5)ccc4Cl)c3c2n1 : ____
### Response 0.9
